# System: MDA-MB-435
# experiment.notes: Cytotoxicity against human MDA-MB-435 cells assessed as inhibition of DHT-induced cell growth at 5 uM
# Format: functional
measured.quantity: inhibition at 5 µM (%)

{"entry.smiles": "C[C@]12CN(c3cccc(C(N)=O)c3)C[C@](C)(O1)[C@@H]1C(=O)N(c3ccc(C#N)c(C(F)(F)F)c3)C(=O)[C@@H]12", "unit": "%", "value.measured": 98}
{"entry.smiles": "C[C@]12CN(C(=O)Nc3ccc(F)cc3)C[C@](C)(O1)[C@@H]1C(=O)N(c3ccc(C#N)c(C(F)(F)F)c3)C(=O)[C@@H]12", "unit": "%", "value.measured": 99}
{"entry.smiles": "C[C@]12CN(c3ncccn3)C[C@](C)(O1)[C@@H]1C(=O)N(c3ccc(C#N)c(C(F)(F)F)c3)C(=O)[C@@H]12", "unit": "%", "value.measured": 99}
{"entry.smiles": "CCCOC(=O)N1C[C@@]2(C)O[C@@](C)(C1)[C@@H]1C(=O)N(c3ccc(C#N)c(C(F)(F)F)c3)C(=O)[C@@H]12", "unit": "%", "value.measured": 99}
{"entry.smiles": "CCCN1C[C@@]2(C)O[C@@](C)(C1)[C@@H]1C(=O)N(c3ccc(C#N)c(C(F)(F)F)c3)C(=O)[C@@H]12", "unit": "%", "value.measured": 99}
{"entry.smiles": "CC(C)N1C(=O)[C@]2(C)O[C@](C)(C1=O)[C@H]1C(=O)N(c3ccc(C#N)c(C(F)(F)F)c3)C(=O)[C@H]12", "unit": "%", "value.measured": 99}
{"entry.smiles": "C[C@]12CN(O)C[C@](C)(O1)[C@@H]1C(=O)N(c3ccc(C#N)c(C(F)(F)F)c3)C(=O)[C@@H]12", "unit": "%", "value.measured": 97}

----------
# experiment.notes: Metabolic stability in human liver microsomes assessed as compound remaining at 3 uM after 10 mins
# Type: ADME, Microsome
# condition.details: read-out: Activity

{"entry.smiles": "C[C@]12CN(c3cccc(S(C)(=O)=O)c3)C[C@](C)(O1)[C@@H]1C(=O)N(c3ccc(C#N)c(C(F)(F)F)c3)C(=O)[C@@H]12", "unit": "%", "remaining at 10 min, 3 µM": 76}

----------
# subject.of.test: Androgen receptor (Homo sapiens, UniProt P10275)
# Sequence (P10275 whole entry): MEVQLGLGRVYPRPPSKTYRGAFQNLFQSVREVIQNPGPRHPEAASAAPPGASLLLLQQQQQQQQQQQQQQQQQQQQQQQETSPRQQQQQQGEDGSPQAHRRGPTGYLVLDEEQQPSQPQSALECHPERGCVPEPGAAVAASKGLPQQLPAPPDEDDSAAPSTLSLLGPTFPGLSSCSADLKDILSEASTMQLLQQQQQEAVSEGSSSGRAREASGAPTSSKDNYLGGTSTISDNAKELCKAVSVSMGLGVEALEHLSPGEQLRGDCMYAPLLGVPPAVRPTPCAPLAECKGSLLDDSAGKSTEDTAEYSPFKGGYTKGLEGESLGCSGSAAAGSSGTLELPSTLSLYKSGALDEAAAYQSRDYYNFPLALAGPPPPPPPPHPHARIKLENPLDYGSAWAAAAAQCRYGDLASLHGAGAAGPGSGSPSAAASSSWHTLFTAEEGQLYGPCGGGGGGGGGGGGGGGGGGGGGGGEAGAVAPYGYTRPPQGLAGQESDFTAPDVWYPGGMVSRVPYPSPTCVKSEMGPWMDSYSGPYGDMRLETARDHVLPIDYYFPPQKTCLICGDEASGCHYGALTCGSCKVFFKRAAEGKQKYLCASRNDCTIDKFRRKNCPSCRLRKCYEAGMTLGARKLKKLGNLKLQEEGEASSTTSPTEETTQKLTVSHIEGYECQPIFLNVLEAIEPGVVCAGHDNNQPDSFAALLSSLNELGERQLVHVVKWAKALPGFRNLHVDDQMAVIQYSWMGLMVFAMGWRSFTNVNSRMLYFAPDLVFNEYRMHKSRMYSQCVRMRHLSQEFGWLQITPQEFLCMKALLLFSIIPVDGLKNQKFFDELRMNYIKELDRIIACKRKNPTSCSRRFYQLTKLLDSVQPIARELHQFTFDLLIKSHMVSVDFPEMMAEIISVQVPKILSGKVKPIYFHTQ
# experiment.notes: Displacement of [3H]DHT from AR in human MDA-MB-453 cells
pKi: −log10 of the molar value.

{"molecule": "C[C@]12CN(c3cc(Cl)ncn3)C[C@](C)(O1)[C@@H]1C(=O)N(c3ccc(C#N)c(C(F)(F)F)c3)C(=O)[C@@H]12", "pKi": 8.46}
{"molecule": "C[C@]12CN(c3cccc(S(N)(=O)=O)c3)C[C@](C)(O1)[C@@H]1C(=O)N(c3ccc(C#N)c(C(F)(F)F)c3)C(=O)[C@@H]12", "pKi": 7.66}
{"molecule": "C[C@]12CNC[C@](C)(O1)[C@@H]1C(=O)N(c3ccc(C#N)c(C(F)(F)F)c3)C(=O)[C@@H]12", "pKi": 7.68}
{"molecule": "CCC(=O)N1C[C@@]2(C)O[C@@](C)(C1)[C@@H]1C(=O)N(c3ccc(C#N)c(C(F)(F)F)c3)C(=O)[C@@H]12", "pKi": 7.08}
{"molecule": "C[C@]12CN(S(=O)(=O)c3ccccc3)C[C@](C)(O1)[C@@H]1C(=O)N(c3ccc(C#N)c(C(F)(F)F)c3)C(=O)[C@@H]12", "pKi": 7.92}
{"molecule": "CCCN1C[C@@]2(C)O[C@@](C)(C1)[C@@H]1C(=O)N(c3ccc(C#N)c(C(F)(F)F)c3)C(=O)[C@@H]12", "pKi": 7.85}
{"molecule": "CC(C)[N+]1([O-])C(=O)[C@]2(C)O[C@](C)(C1=O)[C@H]1C(=O)N(c3ccc(C#N)c(C(F)(F)F)c3)C(=O)[C@H]12 (stereo partly drawn)", "pKi": 5.44}
{"molecule": "C[C@]12CN(C(=O)c3ccccc3)C[C@](C)(O1)[C@@H]1C(=O)N(c3ccc(C#N)c(C(F)(F)F)c3)C(=O)[C@@H]12", "pKi": 7.64}
{"molecule": "C[C@]12CN(c3cccc(C(N)=O)c3)C[C@](C)(O1)[C@@H]1C(=O)N(c3ccc(C#N)c(C(F)(F)F)c3)C(=O)[C@@H]12", "pKi": 8.05}
{"molecule": "C[C@]12CN(C(=O)Nc3ccc(F)cc3)C[C@](C)(O1)[C@@H]1C(=O)N(c3ccc(C#N)c(C(F)(F)F)c3)C(=O)[C@@H]12", "pKi": 7.54}
{"molecule": "C[C@]12CN(S(=O)(=O)c3ccc(F)cc3)C[C@](C)(O1)[C@@H]1C(=O)N(c3ccc(C#N)c(C(F)(F)F)c3)C(=O)[C@@H]12", "pKi": 7.49}
{"molecule": "CCOC(=O)N1C[C@@]2(C)O[C@@](C)(C1)[C@@H]1C(=O)N(c3ccc(C#N)c(C(F)(F)F)c3)C(=O)[C@@H]12", "pKi": 8.24}
{"molecule": "CON1C[C@@]2(C)O[C@@](C)(C1)[C@@H]1C(=O)N(c3ccc(C#N)c(C(F)(F)F)c3)C(=O)[C@@H]12", "pKi": 8.43}

----------
# experiment.notes: Metabolic stability in rat liver microsomes assessed as compound remaining at 3 uM after 10 mins
# Assay type: ADME, Microsome
# condition.details: read-out: Activity
measured.quantity: remaining at 10 min, 3 µM (%)

{"entry.smiles": "C[C@]12CN(c3cccc(S(C)(=O)=O)c3)C[C@](C)(O1)[C@@H]1C(=O)N(c3ccc(C#N)c(C(F)(F)F)c3)C(=O)[C@@H]12", "measured.quantity": "remaining at 10 min, 3 µM", "value.measured": 100}

----------
# Tested on: MDA-MB-435
# experiment.notes: Cytotoxicity against human MDA-MB-435 cells assessed as inhibition of DHT-induced cell growth at 5 uM
# Type: functional
Measured inhibition at 5 µM values are reported for all entries that follow.
measured.quantity: inhibition at 5 µM

{"compound": "CON1C[C@@]2(C)O[C@@](C)(C1)[C@@H]1C(=O)N(c3ccc(C#N)c(C(F)(F)F)c3)C(=O)[C@@H]12", "subject.of.test": "MDA-MB-435", "value.measured": "99%"}
{"compound": "CC(C)[N+]1([O-])C(=O)[C@]2(C)O[C@](C)(C1=O)[C@H]1C(=O)N(c3ccc(C#N)c(C(F)(F)F)c3)C(=O)[C@H]12 (stereo partly specified)", "subject.of.test": "MDA-MB-435", "value.measured": "58%"}
{"compound": "CC(C)NC(=O)N1C[C@@]2(C)O[C@@](C)(C1)[C@@H]1C(=O)N(c3ccc(C#N)c(C(F)(F)F)c3)C(=O)[C@@H]12", "subject.of.test": "MDA-MB-435", "value.measured": "88%"}
{"compound": "C[C@]12CN(S(=O)(=O)c3ccccn3)C[C@](C)(O1)[C@@H]1C(=O)N(c3ccc(C#N)c(C(F)(F)F)c3)C(=O)[C@@H]12", "subject.of.test": "MDA-MB-435", "value.measured": "98%"}
{"compound": "C[C@]12CN(c3cccc(S(C)(=O)=O)c3)C[C@](C)(O1)[C@@H]1C(=O)N(c3ccc(C#N)c(C(F)(F)F)c3)C(=O)[C@@H]12", "subject.of.test": "MDA-MB-435", "value.measured": "96%"}
{"compound": "C[C@]12CN(c3cccc(S(N)(=O)=O)c3)C[C@](C)(O1)[C@@H]1C(=O)N(c3ccc(C#N)c(C(F)(F)F)c3)C(=O)[C@@H]12", "subject.of.test": "MDA-MB-435", "value.measured": "99%"}

----------
Below, each of the molecules is paired with its reported pKi value.
# subject.of.test: Androgen receptor (Homo sapiens)
# experiment.notes: Displacement of [3H]DHT from AR in human MDA-MB-453 cells
pKi: −log10 of the molar value.
measured.quantity: pKi

{"entry.smiles": "C[C@]12CN(c3ncccn3)C[C@](C)(O1)[C@@H]1C(=O)N(c3ccc(C#N)c(C(F)(F)F)c3)C(=O)[C@@H]12", "measured.quantity": "pKi", "value.measured": 8.21}
{"entry.smiles": "C[C@]12O[C@](C)(C(=O)N(CC3CC3)C1=O)[C@H]1C(=O)N(c3ccc(C#N)c(C(F)(F)F)c3)C(=O)[C@H]12", "measured.quantity": "pKi", "value.measured": 7.30}
{"entry.smiles": "CCCOC(=O)N1C[C@@]2(C)O[C@@](C)(C1)[C@@H]1C(=O)N(c3ccc(C#N)c(C(F)(F)F)c3)C(=O)[C@@H]12", "measured.quantity": "pKi", "value.measured": 8.18}
{"entry.smiles": "C[C@]12CN(C(=O)C3CC3)C[C@](C)(O1)[C@@H]1C(=O)N(c3ccc(C#N)c(C(F)(F)F)c3)C(=O)[C@@H]12", "measured.quantity": "pKi", "value.measured": 7.44}
{"entry.smiles": "C[C@]12CN(S(C)(=O)=O)C[C@](C)(O1)[C@@H]1C(=O)N(c3ccc(C#N)c(C(F)(F)F)c3)C(=O)[C@@H]12", "measured.quantity": "pKi", "value.measured": 7.25}
{"entry.smiles": "CCS(=O)(=O)N1C[C@@]2(C)O[C@@](C)(C1)[C@@H]1C(=O)N(c3ccc(C#N)c(C(F)(F)F)c3)C(=O)[C@@H]12", "measured.quantity": "pKi", "value.measured": 7.80}
{"entry.smiles": "C[C@]12CN(S(=O)(=O)c3ccccn3)C[C@](C)(O1)[C@@H]1C(=O)N(c3ccc(C#N)c(C(F)(F)F)c3)C(=O)[C@@H]12", "measured.quantity": "pKi", "value.measured": 7.03}
{"entry.smiles": "CCNC(=O)N1C[C@@]2(C)O[C@@](C)(C1)[C@@H]1C(=O)N(c3ccc(C#N)c(C(F)(F)F)c3)C(=O)[C@@H]12", "measured.quantity": "pKi", "value.measured": 6.75}
{"entry.smiles": "CN1C(=O)[C@]2(C)O[C@](C)(C1=O)[C@H]1C(=O)N(c3ccc(C#N)c(C(F)(F)F)c3)C(=O)[C@H]12", "measured.quantity": "pKi", "value.measured": 7.70}
{"entry.smiles": "C[C@]12CN(O)C[C@](C)(O1)[C@@H]1C(=O)N(c3ccc(C#N)c(C(F)(F)F)c3)C(=O)[C@@H]12", "measured.quantity": "pKi", "value.measured": 7.43}
{"entry.smiles": "CC(C)N1C(=O)[C@]2(C)O[C@](C)(C1=O)[C@H]1C(=O)N(c3ccc(C#N)c(C(F)(F)F)c3)C(=O)[C@H]12", "measured.quantity": "pKi", "value.measured": 7.85}
{"entry.smiles": "CC(C)OC(=O)N1C[C@@]2(C)O[C@@](C)(C1)[C@@H]1C(=O)N(c3ccc(C#N)c(C(F)(F)F)c3)C(=O)[C@@H]12", "measured.quantity": "pKi", "value.measured": 7.96}
{"entry.smiles": "C[C@]12CN(c3cccc(S(C)(=O)=O)c3)C[C@](C)(O1)[C@@H]1C(=O)N(c3ccc(C#N)c(C(F)(F)F)c3)C(=O)[C@@H]12", "measured.quantity": "pKi", "value.measured": 8.03}

These entries and their values trace back to ChEMBL document CHEMBL1208719.
